Test: NCI Yeast Anticancer Drug Screen. Data for the bub3 strain (AID 167)
Settings: S. cerevisiae bub3 mutant strain, at 5.0 µM (retest, dose inferred, filed as 0.5), active compounds read high
About 79,000 compounds went through this panel and 15% of them were active in at least one assay; those are over-represented in the sample as a whole.
Reported Metric: growth inhibition (%)
Write the number in % without appending the unit.

Before answering, review these 2 worked examples.
{"Compound": "CCCCCCCCCCCCS(=O)(=O)CC(Br)C(=O)c1ccco1 (configuration not stated)", "Reported Metric": "growth inhibition", "Unit": "%", "Reported Measurement": 43}
{"Compound": "CN(C)CC/C(=N\\Nc1ccc(Cl)cc1Cl)c1ccccc1", "Reported Metric": "growth inhibition", "Unit": "%", "Reported Measurement": 96}

Q. What value of growth inhibition has been recorded for this entry: CCc1c(O)sc2c(c1=O)C(=NCC(C)C)CC(C)(C)N2
A. 2

Q. What value of growth inhibition has been recorded for this entry: CCCCCN(C(=O)CCl)c1ccccc1
A. -4

Q. What value of growth inhibition has been recorded for this entry: CCN(C(C)=O)c1ccc2c(c1)Cc1ccccc1-2
A. 11

Q. What value of growth inhibition has been recorded for this entry: CC(=O)SCC(=O)Nc1ccc(Cl)cc1
A. -18

Q. What value of growth inhibition has been recorded for this entry: CCN(CC)CCCOC(=O)C(c1ccccc1)C1CCCCC1 (configuration not stated)
A. 16

Q. What value of growth inhibition has been recorded for this entry: O=C1OC(=O)C2C=CC=CC12 (configuration not stated)
A. -3

Q. What value of growth inhibition has been recorded for this entry: Cc1c(Cl)cccc1NC(=O)/C(Cl)=C(\Cl)C(=O)O
A. -3

Q. What value of growth inhibition has been recorded for this entry: O=C1C(Br)=C(Sc2ccc([N+](=O)[O-])cc2)C(=O)c2ccccc21
A. 65

Q. What value of growth inhibition has been recorded for this entry: O=C(O)CCC12CCCCC1=NC1(CCCCC1)NC2=O (configuration not stated)
A. 1

Q. What value of growth inhibition has been recorded for this entry: C=C(c1ccccc1)[P+](c1ccccc1)(c1ccccc1)c1ccccc1
A. 92

Reference for the values: PubChem BioAssay (NCI)
